# System: HT29 colon
# Assay Protocol: NCI-60 one-dose screen, 48 h
# Condition Notes: 10 µM unless noted
Compounds without any hit were thinned out: in the full panel of roughly 83,000, 20% have a hit. Calls of active or inactive are those of the source. How the source made its calls: active means growth percent below 10; inactive means the rest.
Assign a class; possible classes are active, inactive

[[record]]
compound = "CCOC(=O)c1sc2nc(-c3cc(OC)c(OC)c(OC)c3)nc(N3CCOCC3)c2c1C"
cat = "inactive"

[[record]]
compound = "Cc1ccc2c(n1)C(=O)C(Cl)=C(Nc1ccc(N3CCN(C)CC3)cc1)C2=O"
cat = "inactive"

[[record]]
compound = "Cc1c(Cn2cc(COc3ccc(Br)cc3)nn2)c(C)c(Cn2cc(COc3ccc(Br)cc3)nn2)c(C)c1Cn1cc(COc2ccc(Br)cc2)nn1"
cat = "inactive"

[[record]]
compound = "CCOC(=O)c1c[nH]c2cc(OCC3CC3)c(OCC3CC3)cc2c1=O"
cat = "inactive"

[[record]]
compound = "CCOC(=O)COc1c(C)cc(SSc2cc(C)c(OCC(=O)OCC)c(C)c2)cc1C"
cat = "inactive"

[[record]]
compound = "O=S(=O)(NCCCNc1nccc(-c2c(-c3cccc(F)c3)nc3occn23)n1)c1cccc2ccccc12"
cat = "active"

[[record]]
compound = "O=c1[nH]c(CN2CCN(c3cccc(Cl)c3)CC2)nc2cc(Cl)ccc12"
cat = "inactive"

[[record]]
compound = "CC(C)[N+](C)(C)CC(O)COc1cccc2ccccc12 (centres undefined)"
cat = "inactive"


Okay, now this compound:
Assay outcome for `COc1cc(/C=C/C(=O)/C=C/c2ccc(-n3ccnc3C)cc2)ccc1O` : what was it?
active
